Assay: inhibitors of Chlamydomonas gravitaxis, primary screen, whole organism, Chlamydomonas reinhardtii, WT vs cilia-less mutant, absorbance, 96-well (AID 463189);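 further: 0% = wild type cc124 cells in DMSO and 100% = ciliumless bld1 mutant cells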
Details: OD600 absorbance, 2 days, at 10 µM, stronger effect = higher value
Tag: true (1) if measured inhibition is not below 20%, false (0) if it is.

- Cc1ccc(S(=O)(=O)/C(C#N)=C/c2c(N3CCN(C)CC3)nc3c(C)cccn3c2=O)cc1: false (0)
- CCc1cc2c(=O)c(-c3cscn3)coc2c(CN(C)C)c1O: false (0)
- O=C(O)c1ccccc1Nc1cccc(C(F)(F)F)c1: false (0)
- CC1(c2ccco2)NC(=O)NC1=O (stereo unspecified): false (0)
- CCC(NC(C)C)C(O)c1ccc(O)c2[nH]c(=O)ccc12 (stereo unspecified): true (1)
- CC1(C)Cc2c(C#N)c(NCC3CCCO3)nc(-c3ccco3)c2CO1 (stereo unspecified): false (0)

###

Each entry below carries its reported z-score.
Test: DUSP6 inhibitors restoring Erk phosphorylation by chemical complementation, primary imaging in DUSP6-transfected HeLa (AID 609)
Settings: HeLa MKP-3 transfected, phospho-Erk imaging KS statistic; measured here: cell density z-score; at 10 µM; cells stimulated with TPA for 15 min
experimental_endpoint: z-score

* Cc1cc(/C=N\O)c(C)n1-c1ccncc1 | -0.413
* CCCCNC(=O)N(C)c1nncnc1C(=O)NC | 0.256
* CCN(CC)c1ncc(C)c(=O)[nH]1 | 0.304
* CC(NCCC(c1ccccc1)c1ccccc1)c1ccccc1 (centres undefined) | 1.32
* COC(=O)c1ccc(C2C(C(=O)c3cc4ccccc4o3)=C(O)C(=O)N2CCCN(C)C)cc1 (centres undefined) | 0.389
* COc1ccc(/C(O)=C2/C(=O)C(=O)N(CCN3CCOCC3)C2c2ccccn2)cc1 (centres undefined) | -1.25
* CCOC(=O)C1/C(=N\O)CC(C)(O)C(C(=O)OCC)C1c1ccc(OC)c(OC)c1 (centres undefined) | 0.422
* COCCOC(=O)C1=C(C)NC(SCC(=O)NC(C)(C)C)=C(C#N)C1c1ccco1 (centres undefined) | 0.297
* Cc1cc(-c2ccccc2)nnc1NCCN1CCOCC1 | 0.561

###

Experiment: DUSP6 inhibitors restoring Erk phosphorylation by chemical complementation, primary imaging in DUSP6-transfected HeLa (AID 609)
Details: HeLa MKP-3 transfected, phospho-Erk imaging KS statistic; measured here: nuclear pErk red intensity z-score; at 10 µM; stronger effect = higher value; cells stimulated with TPA for 15 min
Tag: True if measured z-score is not below 0.2, False if it is.

- COc1ccc2[nH]c(C)c(C(=O)CN3CCc4cc(OC)c(OC)cc4C3)c2c1: False
- S=c1[nH]nc(-c2ccco2)n1Cc1ccccc1: False
- COc1ccc(Nc2nc(Nc3ccc(OC)cc3)nc(-n3[nH]c(=O)c(C)c3C)n2)cc1: False
- CCN(CC)CCCn1c(C)cc2c(c1=O)C(c1cccc(Cl)c1)C(C#N)=C(N)O2 (stereo not drawn): True
- Cn1ncc(N=Cc2ccccc2O)c1C(=O)Nc1ccccc1: True
- CCOC(=O)NC(O)C(=O)c1cccs1 (stereo not drawn): False
- CCC(C)n1ncn(-c2ccc(N3CCN(c4ccc(OCC5COC(Cn6cncn6)(c6ccc(Cl)cc6Cl)O5)cc4)CC3)cc2)c1=O (stereo not drawn): False
- CC(=O)OCC(=O)[C@H]1CC[C@H]2[C@@H]3CC=C4C[C@@H](O)CC[C@]4(C)[C@H]3CC[C@]12C: False
- CCCC(=O)Nn1cnc2c(c1=O)C1(CCCC1)Cc1ccccc1-2: False
- CN1CCN(/C=N/c2sc3c(c2C#N)CCCCC3)CC1: True
- C=C1C2(C(=O)Nc3nccs3)CCC(C2)C1(C)C (stereo not drawn): True
- COc1cc2[nH]c3c(=O)n(CCN(C(C)C)C(C)C)cnc3c2cc1OC: True
- Fc1cc(F)c(F)c(SCCc2ccncc2)c1F: False
- Cc1cc(C)cc(CC2CC(=O)N(c3cc(C)on3)C2=O)c1 (stereo not drawn): True
- COc1ccc(/C=N/n2cncn2)cc1COc1ccc(NC(C)=O)cc1: False
- CCOC(=O)c1cc2c(=O)n3cccc(C)c3nc2n(Cc2cccnc2)c1=N: False
- CCN(CC)CC#CCOC(=O)C(O)(c1ccccc1)C1CCCCC1 (stereo not drawn): True
- COn1c(=S)[nH]c2ccccc2c1=O: False
- COc1cc([C@@H]2c3cc4c(cc3[C@H](O)[C@H]3COC(=O)[C@H]23)OCO4)cc(OC)c1OC: False
- COc1ccc(C(=O)C(CN2CCCC2)c2ccccc2)cc1 (stereo not drawn): True
- COc1cc(-c2nn3c(-c4ccccn4)nnc3s2)cc(OC)c1OC: False
- COC(=O)CNc1nc(-c2cccnc2)nc2ccccc12: True
- COCCCNC(=O)C(C#N)c1nc2ccccc2nc1N1CCCC1 (stereo not drawn): False

From: PubChem BioAssay
